Target: human PRS protein (His-Avi-hEPRS (998-1512)) (Homo sapiens, UniProt P07814)
Construct: to construct His-Avi-hEPRS (998-1512) expression plasmid; His tag (N); Avi tag (N); TEV cleavage site (ENLYFQG, then S; inferred from the forward primer hEPRS-TEV-NheF) (N); made in house; host or cells: E. coli BL21(DE3)
Sequence (P07814 998-1512 limits assumed): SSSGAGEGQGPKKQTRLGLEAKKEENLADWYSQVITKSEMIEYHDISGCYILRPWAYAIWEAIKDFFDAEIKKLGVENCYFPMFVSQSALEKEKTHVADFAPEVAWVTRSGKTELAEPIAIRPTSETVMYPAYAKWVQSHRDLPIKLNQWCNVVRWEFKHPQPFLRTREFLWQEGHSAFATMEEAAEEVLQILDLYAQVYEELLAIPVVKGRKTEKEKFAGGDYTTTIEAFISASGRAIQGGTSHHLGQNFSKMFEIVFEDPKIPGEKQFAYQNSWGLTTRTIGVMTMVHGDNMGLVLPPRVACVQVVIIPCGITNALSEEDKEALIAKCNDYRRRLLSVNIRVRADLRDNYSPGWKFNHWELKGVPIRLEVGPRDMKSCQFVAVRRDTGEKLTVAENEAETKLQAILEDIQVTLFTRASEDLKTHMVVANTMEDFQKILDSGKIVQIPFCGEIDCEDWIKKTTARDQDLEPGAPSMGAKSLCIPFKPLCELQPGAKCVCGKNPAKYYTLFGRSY
Assay: PRS inhibitory activity ([32P]pyrophosphate exchange enzyme assay)
Assay type: biochemical
Conditions: 300 nM test compound; read-out: inhibitory rate (%) of PRS
Description: The PRS inhibitory activity of the compounds of the present invention was evaluated by the following method. […] Recombinant human PRS protein was prepared by transforming the His-Avi-hEPRS (998-1512) expression plasmid prepared above into ECOS Competent E. coli BL21(DE3) (NIPPON GENE CO., LTD.). […] The protein concentration was measured using BCA Protein Assay Kit (PIERCE) and BSA as the standard. […]
Measured parameter: inhibition at 0.3 µM (%)

- Compound: "Cn1cc(-c2cc(F)cc(CNC(=O)c3nccc4nc(C5CCCC5)n(Cc5ccccc5)c34)c2)cn1"
  System name: "human PRS protein (His-Avi-hEPRS (998-1512)) (Homo sapiens, UniProt P07814)"
  Recorded value: 69
- Compound: "Cn1cc(-c2cc(F)cc(CNC(=O)c3ncnc4nc(C5COCCO5)[nH]c34)c2)cn1 (centres unmarked)"
  System name: "human PRS protein (His-Avi-hEPRS (998-1512)) (Homo sapiens, UniProt P07814)"
  Recorded value: 101
- Compound: "COc1cc(-c2cc(F)cc(CNC(=O)c3nccc4nc(C5CCCC5)n(C)c34)c2)ccn1"
  System name: "human PRS protein (His-Avi-hEPRS (998-1512)) (Homo sapiens, UniProt P07814)"
  Recorded value: 101
- Compound: "Cn1cc(-c2cc(F)cc(CNC(=O)c3ncnc4nc(C5CCC(F)(F)C5)[nH]c34)c2)cn1 (centres unmarked)"
  System name: "human PRS protein (His-Avi-hEPRS (998-1512)) (Homo sapiens, UniProt P07814)"
  Recorded value: 102
- Compound: "Cn1cc(-c2cc(F)cc(CNC(=O)c3nccc4nc(CC5CC5)[nH]c34)c2)cn1"
  System name: "human PRS protein (His-Avi-hEPRS (998-1512)) (Homo sapiens, UniProt P07814)"
  Recorded value: 98
- Compound: "CC1(c2nc3ccnc(C(=O)NCc4ccccc4Cl)c3[nH]2)CCCC1"
  System name: "human PRS protein (His-Avi-hEPRS (998-1512)) (Homo sapiens, UniProt P07814)"
  Recorded value: 74
- Compound: "Cn1cc(-c2cc(F)cc(CNC(=O)c3ncnc4nc(C5CCS(=O)(=O)C5)[nH]c34)c2)cn1 (centres unmarked)"
  System name: "human PRS protein (His-Avi-hEPRS (998-1512)) (Homo sapiens, UniProt P07814)"
  Recorded value: 101
- Compound: "Cn1cc(-c2cc(F)cc(CNC(=O)c3ncnc4nc(C5CCOC5)[nH]c34)c2)cn1 (centres unmarked)"
  System name: "human PRS protein (His-Avi-hEPRS (998-1512)) (Homo sapiens, UniProt P07814)"
  Recorded value: 96
